The measurements presented in this section are drawn from patent US4870183A.

Exercise: state measured IC50 for each of the molecules provided.
target: human renin (Homo sapiens, UniProt P00797); test: Inhibitory effect on human renin-sheep renin substrate reaction system in vitro; type: biochemical; conditions: human renin-sheep renin substrate system, pH 7.4, 37° C., 15 minutes; read-out: IC50 molar concentration

For every record below, what is its IC50?
1. CC(C)OC(=O)C(O)[C@H](CC1CCCCC1)NC(=O)[C@H](Cc1c[nH]cn1)NC(=O)C(Cc1ccccc1O)Cc1ccccc1O (some centres unmarked)
2. CC(C)OC(=O)C(O)[C@H](CC1CCCCC1)NC(=O)[C@H](Cc1c[nH]cn1)NC(=O)C(Cc1ccc(F)cc1)Cc1ccc(F)cc1 (mixture of isomers)

Solution:
1: 180 nM; 2: 68 nM

---

Assign IC50 to each entry below.
Molecular target: renin in human high renin plasma (Homo sapiens, UniProt P00797)
Construct: from tissue; host or cells: human high renin plasma
Sequence (P00797 67-406): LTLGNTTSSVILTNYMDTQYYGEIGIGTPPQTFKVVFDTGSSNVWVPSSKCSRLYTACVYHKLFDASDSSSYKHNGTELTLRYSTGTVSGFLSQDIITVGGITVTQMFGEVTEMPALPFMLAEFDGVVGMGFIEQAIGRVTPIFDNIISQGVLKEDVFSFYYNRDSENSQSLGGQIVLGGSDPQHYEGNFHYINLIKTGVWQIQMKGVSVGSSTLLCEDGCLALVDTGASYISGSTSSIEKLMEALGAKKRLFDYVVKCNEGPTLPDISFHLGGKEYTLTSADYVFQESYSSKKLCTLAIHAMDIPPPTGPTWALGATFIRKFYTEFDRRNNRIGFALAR
Assay: Renin inhibitory effect in a human high renin plasma
Format: biochemical
Protocol: Renin Inhibitory Effect in a Human High Renin Plasma Two hundred μl of the mixture was placed on an ice bath, at 4° C., and remaining mixture (800 μl) was incubated for 60 minutes at 37° C. on a water bath. Two hundred μl of the incubated remaining mixture was chilled immediately on an ice bath, and the amount (A) of angiotensin I produced was determined by radioimmunoassay using renin riabead kit (DAINABOT). […] The inhibitory effect was calculated by the following equation. […]
Please format your answer as a value with the unit trailing.

>  <Molecule>
CC(C)OC(=O)C(O)[C@H](CC1CCCCC1)NC(=O)[C@H](Cc1c[nH]cn1)NC(=O)C(Cc1ccccc1Br)Cc1ccccc1Br (mixture of isomers) [Compound I]

>  <Value reported>
430 nM

$$$$
>  <Molecule>
CC(C)OC(=O)C(O)[C@H](CC1CCCCC1)NC(=O)[C@H](Cc1c[nH]cn1)NC(=O)C(Cc1ccc(Cl)cc1)Cc1ccc(Cl)cc1 (mixture of isomers) [Compound J]

>  <Value reported>
5900 nM

$$$$

Next up:
Looking up CC(C)OC(=O)C(O)[C@H](CC1CCCCC1)NC(=O)[C@H](Cc1c[nH]cn1)NC(=O)C(Cc1ccccc1F)Cc1ccccc1F (mixture of isomers) [Compound A] , I see its IC50 listed as 130 nM

---

target: human renin (Homo sapiens, UniProt P00797); assay: Inhibitory effect on human renin-sheep renin substrate reaction system in vitro; type: biochemical
What IC50 was measured for each of the following?
One number for each entry, in µM.

// known answers, use as guide
>  <Compound>
CC(C)OC(=O)C(O)[C@H](CC1CCCCC1)NC(=O)[C@H](Cc1c[nH]cn1)NC(=O)C(Cc1ccccc1C#N)Cc1ccccc1C#N (mixture of isomers)

>  <Reading unit>
µM

>  <IC50>
0.19

$$$$
>  <Compound>
CC(C)OC(=O)C(O)[C@H](CC1CCCCC1)NC(=O)[C@H](Cc1c[nH]cn1)NC(=O)C(Cc1ccc(Cl)cc1)Cc1ccc(Cl)cc1 (mixture of isomers)

>  <Reading unit>
µM

>  <IC50>
0.47

$$$$
>  <Compound>
Cc1cccc(C)c1CC(Cc1c(C)cccc1C)C(=O)N[C@@H](Cc1c[nH]cn1)C(=O)N[C@@H](CC1CCCCC1)C(O)C(=O)OC(C)C (mixture of isomers)

>  <Reading unit>
µM

>  <IC50>
0.9

$$$$
>  <Compound>
CC(C)OC(=O)C(O)[C@H](CC1CCCCC1)NC(=O)[C@H](Cc1c[nH]cn1)NC(=O)C(Cc1cccc(F)c1)Cc1cccc(F)c1 (mixture of isomers)

>  <Reading unit>
µM

>  <IC50>
0.018

$$$$
>  <Compound>
CC(C)CNC(=O)C(O)[C@H](CC1CCCCC1)NC(=O)[C@H](Cc1c[nH]cn1)NC(=O)C(Cc1cccc2c1OCO2)Cc1cccc2c1OCO2 (mixture of isomers)

>  <Reading unit>
µM

>  <IC50>
1.8

$$$$

Could I get IC50 for every one of these entries?
1. CC(C)OC(=O)C(O)[C@H](CC1CCCCC1)NC(=O)[C@H](Cc1c[nH]cn1)NC(=O)C(Cc1ccccc1)Cc1ccccc1 (mixture of isomers)
2. CC(C)OC(=O)C(O)[C@H](CC1CCCCC1)NC(=O)[C@H](Cc1c[nH]cn1)NC(=O)C(Cc1ccccc1Br)Cc1ccccc1Br (mixture of isomers)

Solution:
1: 0.052; 2: 0.018
